Data origin: patent EP3345917A1

- assay.remarks: Cytotoxicity assay on L6-cells (Alamar Blue)
- assay.setup: rat, Cytotox L6, Cytotoxicity against rat myoblast cells (L6)
Non-standard residues stand in square brackets, D forms with d. Residues, ends and D or L forms follow the SMILES beside them. *: point of attachment. CH3O(CH2CH2O)11CH2CH2CO = COCCOCCOCCOCCOCCOCCOCCOCCOCCOCCOCCOCCC(=O)*; Dansyl = CN(C)c1cccc2c(S(=O)(=O)*)cccc12; NH((S)CH(Me)CH2NMe2) = C[C@@H](CN(C)C)N*; Gly(octyl) = CCCCCCCC[C@H](N)C(=O)O; X16 = COc1ccc2cc(C(=O)*)c(=O)oc2c1; X11 = C[C@@H]1CN(CCN*)C[C@H](C)O1; X8 = C[C@@H](CN1CCCCC1)N*; Hexanoyl = CCCCCC(=O)*; Aib = CC(C)(N)C(=O)O; βAla = NCCC(=O)O; NHcPr = C1CC1N*
Provide the recorded log10 of IC50 at 70 h for the entries that follow.
Hi team, quick reminder: these entries are log10 of IC50 at 70 h (nM).

Can you share its log10 of IC50 at 70 h? I mean this compound: CCCCCC(=O)N1CCC[C@H]1C(=O)N[C@@H](CCCCNC(=O)c1cc2ccc(OC)cc2oc1=O)C(=O)N[C@@H](CC(C)C)C(=O)NC(C)(C)C(=O)N[C@@H](CC(C)C)C(=O)N[C@@H](CC(C)C)C(=O)NC(C)(C)C(=O)NC(C)(C)C(=O)NCCC(=O)N[C@@H](C)CN(C)C [Compound 5767] (Hexanoyl-PK(X16)L[Aib]LL[Aib][Aib][βAla]-{NH((S)CH(Me)CH2NMe2)})
2.71

GET /values?readout=log10 of IC50 at 70 h&item= CCCCCCCC[C@H](NC(=O)[C@@H]1CCCN1C(=O)CCCCC)C(=O)N[C@@H](CC(C)C)C(=O)NC(C)(C)C(=O)N[C@@H](CC(C)C)C(=O)N[C@@H](CC(C)C)C(=O)NC(C)(C)C(=O)NC(C)(C)C(=O)NCCC(=O)NC1CC1 [Compound 5645] (Hexanoyl-P[Gly(octyl)]L[Aib]LL[Aib][Aib][βAla]-NHcPr)
3.09

# query: log10 of IC50 at 70 h of entry CCCCCCCC[C@H](NC(=O)[C@@H]1CCCN1C(=O)CCOCCOCCOCCOCCOCCOCCOCCOCCOCCOCCOCCOC)C(=O)N[C@@H](CC(C)C)C(=O)NC(C)(C)C(=O)N[C@@H](CC(C)C)C(=O)N[C@@H](CC(C)C)C(=O)NC(C)(C)C(=O)NC(C)(C)C(=O)NCCC(=O)N[C@@H](C)CN(C)C [Compound 6067] ({CH3O(CH2CH2O)11CH2CH2CO}-P[Gly(octyl)]L[Aib]LL[Aib][Aib][βAla]-{NH((S)CH(Me)CH2NMe2)})
3.67

Any idea what log10 of IC50 at 70 h was measured for CCCCCCCC[C@H](NC(=O)[C@@H]1CCCN1C(=O)CCCCC)C(=O)N[C@@H](CC(C)C)C(=O)NC(C)(C)C(=O)N[C@@H](CC(C)C)C(=O)N[C@@H](CC(C)C)C(=O)NC(C)(C)C(=O)NC(C)(C)C(=O)NCCC(=O)N[C@@H](C)CN1CCCCC1 [Compound 5886] (Hexanoyl-P[Gly(octyl)]L[Aib]LL[Aib][Aib][βAla]-X8) ?
2.97

I would be grateful if you could share the reported log10 of IC50 at 70 h for CCCCCCCC[C@H](NC(=O)[C@@H]1CCCN1C(=O)CCCCC)C(=O)N[C@@H](CC(C)C)C(=O)NC(C)(C)C(=O)N[C@@H](CC(C)C)C(=O)N[C@@H](CC(C)C)C(=O)NC(C)(C)C(=O)NC(C)(C)C(=O)NCCC(=O)NCCN1C[C@@H](C)O[C@@H](C)C1 [Compound 5648] (Hexanoyl-P[Gly(octyl)]L[Aib]LL[Aib][Aib][βAla]-X11) .
3.36

Query (compound): CCCCCCCC[C@H](NC(=O)[C@@H]1CCCN1S(=O)(=O)c1cccc2c(N(C)C)cccc12)C(=O)N[C@@H](CC(C)C)C(=O)NC(C)(C)C(=O)N[C@@H](CC(C)C)C(=O)N[C@@H](CC(C)C)C(=O)NC(C)(C)C(=O)NC(C)(C)C(=O)NCCC(=O)N[C@@H](C)CN(C)C [Compound 5765] (Dansyl-P[Gly(octyl)]L[Aib]LL[Aib][Aib][βAla]-{NH((S)CH(Me)CH2NMe2)}) ; field requested: log10 of IC50 at 70 h
2.40
